system_under_test: T1, soluble KDR Ig4-7 domain (human, UniProt P35968 328-764)
T1 construct: domain: Ig4-7 domain; also called b-KDRIg4-7-myc-his; Ig4-7 domain of KDR; not shown: myc-his tag of the pSecTag construct
method_summary: ELISA, KDR Ig4-7 coat (1:1 diln.), antibody 0.1 ug/mL
readout_type: ELISA reading
API doc: respond with a numeric literal and nothing else, no unit.

[
  {
    "binder": "27A3 (antibody, V domains shown, Fully human monoclonal antibody from a XenoMouse hybridoma (IgG2 or IgG4 strain), purified) VH: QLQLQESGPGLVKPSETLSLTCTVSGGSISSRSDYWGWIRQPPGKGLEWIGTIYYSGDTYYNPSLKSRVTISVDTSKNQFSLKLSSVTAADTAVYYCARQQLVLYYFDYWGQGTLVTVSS VL: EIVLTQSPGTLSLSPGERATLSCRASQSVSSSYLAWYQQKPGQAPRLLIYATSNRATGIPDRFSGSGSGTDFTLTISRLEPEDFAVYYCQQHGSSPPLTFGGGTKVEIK",
    "val": 0.075
  }
]

Q: Which ELISA reading reading was recorded for the binder 24B3 (antibody, V domains shown, Fully human monoclonal antibody from a XenoMouse hybridoma (IgG2 or IgG4 strain), purified) VH: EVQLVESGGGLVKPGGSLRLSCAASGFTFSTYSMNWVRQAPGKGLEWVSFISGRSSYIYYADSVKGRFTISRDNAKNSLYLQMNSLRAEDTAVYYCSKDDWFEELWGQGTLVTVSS VL: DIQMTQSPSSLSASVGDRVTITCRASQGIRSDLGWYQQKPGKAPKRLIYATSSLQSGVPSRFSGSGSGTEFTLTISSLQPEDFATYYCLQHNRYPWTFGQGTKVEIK ?
Result: 2.8

The measured values listed here are drawn from patent US20100260765A1.
